target: T1, human CD47 (human, UniProt Q08722 19-139); experiment: SPR, 25 C, 1:1 Langmuir fit
T1 construct: extracellular domain; also called CD47 ECD
T1 sequence (Q08722 19-139 limits assumed): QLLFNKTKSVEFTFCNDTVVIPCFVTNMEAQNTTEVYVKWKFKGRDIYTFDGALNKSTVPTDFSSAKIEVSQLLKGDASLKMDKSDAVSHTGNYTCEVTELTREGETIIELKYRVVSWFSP
Attribute: Kd
Write the numeric value and follow it with the unit.

As a guide, the following entries are already answered.
[
  {
    "binder": "SIRP-α D1 variant polypeptide of SEQ ID NO: 79 (receptor, engineered SIRP-α D1 domain) EEELQVIQPDKSVLVAAGETATLRCTATSLFPVGPIQWFRGAGPGRELIYNQRQGPFPRVTTVSDLTKRNNMDFSIRIGAITPADAGTYYCVKFRKGSPDDVEFKSGAGTELSVRAKPS",
    "Kd": "0.217 nM"
  },
  {
    "binder": "SIRP-α D1 variant polypeptide of SEQ ID NO: 76 (receptor, engineered SIRP-α D1 domain) EEELQVIQPDKSVLVAAGETATLRCTATSLFPVGPIQWFRGAGPGRELIYNQREGPFPRVTTVSDLTKRNNMDFSIRIGNITPADAGTYYCVKFRKGSPDDVEFKSGAGTELSVRAKPS",
    "Kd": "7.41 nM"
  },
  {
    "binder": "SIRP-α D1 variant polypeptide of SEQ ID NO: 59 (receptor, engineered SIRP-α D1 domain) EEELQIIQPDKSVSVAAGESAILHCTITSLFPVGPIQWFRGAGPARVLIYNQKQGPFPRVTTVSETTKRENMDFSISISNITPADAGTYYCIKFRKGSPDTEFKSGAGTELSVRAKPS",
    "Kd": "14 nM"
  }
]

Would you mind telling me what Kd value was observed for SIRP-α D1 variant polypeptide of SEQ ID NO: 78 (receptor, engineered SIRP-α D1 domain) EEELQIIQPDKSVLVAAGETATLRCTITSLFPVGPIQWFRGAGPGRVLIYNQRQGPFPRVTTVSDTTKRNNMDFSIRIGAITPADAGTYYCIKFRKGSPDDVEFKSGAGTELSVRAKPS ? 0.0144 nM
